- Study System: 5-lipoxygenase (Rattus norvegicus, UniProt P12527)
- Construct: endogenous in cells; host or cells: rat basophilic leukemia cells
- Sequence (P12527 whole entry): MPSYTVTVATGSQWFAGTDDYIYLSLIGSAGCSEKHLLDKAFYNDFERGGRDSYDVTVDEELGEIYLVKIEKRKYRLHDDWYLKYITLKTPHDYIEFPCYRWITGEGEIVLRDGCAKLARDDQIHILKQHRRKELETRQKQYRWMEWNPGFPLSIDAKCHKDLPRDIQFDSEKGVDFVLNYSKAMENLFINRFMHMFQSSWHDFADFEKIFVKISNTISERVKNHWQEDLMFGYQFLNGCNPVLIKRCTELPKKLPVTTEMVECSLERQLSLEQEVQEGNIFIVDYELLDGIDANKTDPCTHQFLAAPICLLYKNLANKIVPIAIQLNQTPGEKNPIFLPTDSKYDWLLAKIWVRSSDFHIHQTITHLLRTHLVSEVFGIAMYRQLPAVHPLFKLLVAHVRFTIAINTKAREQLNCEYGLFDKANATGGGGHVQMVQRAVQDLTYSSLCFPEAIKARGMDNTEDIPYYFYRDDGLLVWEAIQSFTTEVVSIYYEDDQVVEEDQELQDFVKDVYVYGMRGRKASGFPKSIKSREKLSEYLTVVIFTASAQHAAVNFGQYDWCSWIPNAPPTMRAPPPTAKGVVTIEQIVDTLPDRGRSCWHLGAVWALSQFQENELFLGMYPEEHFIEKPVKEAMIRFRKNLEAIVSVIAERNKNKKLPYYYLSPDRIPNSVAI
- Run Description: Inhibition of 5-lipoxygenase in rat basophilic leukemia cells ([14C]-arachidonic acid, TLC)
- Assay type: cell-based
- Condition Info: selectivity, B/A
Reported Endpoint: Quotient (IC50 cyclooxygenase (B) / 5-lipoxygenase (A))

NC(=O)N(O)Cc1cccc(C#Cc2ccc(Cl)cc2)c1 [Example 10m] tested on 5-lipoxygenase (Rattus norvegicus, UniProt P12527) gave Quotient (IC50 cyclooxygenase (B) / 5-lipoxygenase (A)): > 1923

NC(=O)N(O)Cc1cccc(C#Cc2cccc3ccccc23)c1 tested on 5-lipoxygenase (Rattus norvegicus, UniProt P12527) gave Quotient (IC50 cyclooxygenase (B) / 5-lipoxygenase (A)): > 769

COc1ccc(C#Cc2cccc(C(C)N(O)C(C)=O)c2)cc1OC (stereo not drawn) tested on 5-lipoxygenase (Rattus norvegicus, UniProt P12527) gave Quotient (IC50 cyclooxygenase (B) / 5-lipoxygenase (A)): > 1786

CC(c1cccc(C#Cc2ccc(C(F)(F)F)cc2)c1)N(O)C(N)=O (stereo not drawn) tested on 5-lipoxygenase (Rattus norvegicus, UniProt P12527) gave Quotient (IC50 cyclooxygenase (B) / 5-lipoxygenase (A)): > 746

COc1cccc(C#Cc2cccc(C(C)N(O)C(C)=O)c2)c1 (stereo not drawn) tested on 5-lipoxygenase (Rattus norvegicus, UniProt P12527) gave Quotient (IC50 cyclooxygenase (B) / 5-lipoxygenase (A)): > 862

COc1ccc(C#Cc2cccc(C(C)N(O)C(N)=O)c2)cc1OC (stereo not drawn) [Example 10b] tested on 5-lipoxygenase (Rattus norvegicus, UniProt P12527) gave Quotient (IC50 cyclooxygenase (B) / 5-lipoxygenase (A)): > 725

COc1cccc(C#Cc2cccc(C(C)N(O)C(N)=O)c2)c1 (stereo not drawn) [Example 10c] tested on 5-lipoxygenase (Rattus norvegicus, UniProt P12527) gave Quotient (IC50 cyclooxygenase (B) / 5-lipoxygenase (A)): > 1852

CC(=O)N(O)Cc1cccc(C#Cc2ccc3ccccc3c2)c1 tested on 5-lipoxygenase (Rattus norvegicus, UniProt P12527) gave Quotient (IC50 cyclooxygenase (B) / 5-lipoxygenase (A)): > 746

COc1ccc(C#Cc2cccc(CN(O)C(N)=O)c2)cc1 [Example 10n] tested on 5-lipoxygenase (Rattus norvegicus, UniProt P12527) gave Quotient (IC50 cyclooxygenase (B) / 5-lipoxygenase (A)): > 2778
